target: UniProtKB Q9HBX9; assay: RXFP1 Hu cAMP (Test A), HTRF cAMP production; conditions: cAMP production, Jump-In T-REx CHO-K1 cells stably transfected with human RXFP1; geometric mean
Sequence (Q9HBX9 whole entry): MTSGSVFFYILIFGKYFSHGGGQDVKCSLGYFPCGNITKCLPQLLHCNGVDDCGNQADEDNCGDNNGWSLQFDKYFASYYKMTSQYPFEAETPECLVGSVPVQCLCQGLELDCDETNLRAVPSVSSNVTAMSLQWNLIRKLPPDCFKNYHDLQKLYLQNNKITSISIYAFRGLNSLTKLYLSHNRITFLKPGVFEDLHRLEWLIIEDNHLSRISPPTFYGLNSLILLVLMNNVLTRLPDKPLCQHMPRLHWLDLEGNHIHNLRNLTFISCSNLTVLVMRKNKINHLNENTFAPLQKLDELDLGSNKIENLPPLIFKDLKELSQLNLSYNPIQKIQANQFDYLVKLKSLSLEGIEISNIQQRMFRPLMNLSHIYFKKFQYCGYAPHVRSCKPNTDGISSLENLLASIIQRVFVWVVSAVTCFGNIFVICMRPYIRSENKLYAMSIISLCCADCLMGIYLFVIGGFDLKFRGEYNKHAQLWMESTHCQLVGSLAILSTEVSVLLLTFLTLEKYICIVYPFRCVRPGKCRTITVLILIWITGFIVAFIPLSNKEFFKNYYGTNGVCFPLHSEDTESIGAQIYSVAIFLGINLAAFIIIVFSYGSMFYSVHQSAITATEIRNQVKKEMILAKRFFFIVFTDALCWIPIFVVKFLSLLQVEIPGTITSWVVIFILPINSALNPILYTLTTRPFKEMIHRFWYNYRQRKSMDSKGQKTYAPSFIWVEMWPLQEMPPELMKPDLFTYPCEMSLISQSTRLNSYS
outcome.measure: EC50 (nM)

molecule="COc1cc(F)c(O[C@H]2CC[C@@](C)(C(=O)O)CC2)cc1C(=O)N[C@@H]1[C@H]2CC[C@H](C2)[C@@H]1C(=O)NCC1CCC1 [Example 2]" measurement_units=nM test_value=230
